- experiment.notes: Solubility of the compound
- Type: physicochemical
Recorded measurements of solubility, one per entry
// units = µg/mL; emit number, no label

Illustrative cases are given below, each with its answer.
Oc1cccc(COC2CC[C@@H](O)C(Cc3ccccc3)O2)c1 (some centres undefined): 200
O[C@H]1CO[C@@H](O)C(c2nc3ncncc3n2-c2ccccc2)C1 (some centres undefined): 440
N[C@@H](Cc1ccc(O)cc1-c1ccccc1)c1ccccc1O: 6350

Turning now to a further record.
Ask: # return recorded solubility for input O=CNC(=S)Nc1cc(-c2ccccc2)c([N+](=O)[O-])cc1O
Result: 160
